All values here come from ChEMBL document CHEMBL1828528.

System: Human immunodeficiency virus 1
Assay: Antiviral activity against HIV1 clade A/E isolate 2165 infected in human H9 cells assessed as inhibition of viral replication
Format: functional, organism-based
Details: Human immunodeficiency virus 1, clade A/E isolate 2165, H9
// values below are reported pEC50
pEC50 is defined as minus the log10 of a concentration measured in mol/L.

{"compound": "C[C@H](Cn1cnc2c(N)ncnc21)OCP(=O)([O-])[S-].[Na+].[Na+] (some centres undefined)", "pEC50": 6.47}

Exam item: Consider the compound C[C@H](Cn1cnc2c(N)ncnc21)OCP(=O)(O)O [TENOFOVIR ANHYDROUS] and give its measured pEC50.
Marked response: 6.29

Exam item: Consider the compound Nc1ncnc2c1ncn2CCOCP(=O)([O-])[S-].[Na+].[Na+] (centres undefined) and give its measured pEC50.
Marked response: 6.52

Exam item: Consider the compound `Nc1ncnc2c1ncn2CCOCP(=O)(O)O` and give its measured pEC50.
Marked response: 6.49

---

Tested on: Human immunodeficiency virus 1
Assay: Antiviral activity against HIV1 clade B isolate 1722 infected in human H9 cells assessed as inhibition of viral replication
Format: functional, organism-based
Conditions: Human immunodeficiency virus 1, clade B isolate 1722, H9
testReadout: EC50 (nM)
Report the figure in nM without appending any unit label.

Below, 2 compounds whose answers are already recorded.
{"compound": "Nc1ncnc2c1ncn2CCOCP(=O)([O-])[S-].[Na+].[Na+] (centres undefined)", "EC50 [nM]": 2800}
{"compound": "C[C@H](Cn1cnc2c(N)ncnc21)OCP(=O)([O-])[S-].[Na+].[Na+] (some centres undefined)", "EC50 [nM]": 510}

Exam item: Consider the compound C[C@H](Cn1cnc2c(N)ncnc21)OCP(=O)(O)O [TENOFOVIR ANHYDROUS] and give its measured EC50.
Marked response: 690

Exam item: Consider the compound Nc1ncnc2c1ncn2CCOCP(=O)(O)O [ADEFOVIR] and give its measured EC50.
Marked response: 1850

---

Experiment: Stability of compound in presence of CEM-SS cell extract assessed as compound degradation after 24 hrs by HPLC analysis
Assay type: physicochemical
Conditions: human, read-out: Activity
// values below are reported metabolised at 24 h

{"compound": "Nc1ncnc2c1ncn2CCOCP(=O)([O-])[S-].[Na+].[Na+] (configuration not stated)", "result": "< 1%"}

Attention now turns to another entry.
Exam item: Consider the compound C[C@H](Cn1cnc2c(N)ncnc21)OCP(=O)([O-])[S-].[Na+].[Na+] (some centres not stated) and give its measured metabolised at 24 h.
Marked response: < 1%

---

Test system: Hepatitis B virus
Assay: Antiviral activity against Hepatitis B virus infected in human HuH7 cells assessed as reduction in viral DNA level treated day 3 to day 8 post transfection by real time quantitative PCR analysis
Type: functional, organism-based
Conditions: Huh-7
testReadout: EC50 (µM)
Report the figure in µM without appending any unit label.

{"compound": "Nc1ncnc2c1ncn2CCOCP(=O)(O)O", "unitAnnotation": "µM", "EC50": 6}

Attention now turns to another entry.
Exam item: Consider the compound Nc1ncnc2c1ncn2CCOCP(=O)([O-])[S-].[Na+].[Na+] (configuration not stated) and give its measured EC50.
Marked response: 4.5

---

System: Human immunodeficiency virus 1
Assay: Antiviral activity against HIV1 clade C isolate 2914 infected in human H9 cells assessed as inhibition of viral replication
Type: functional, organism-based
Settings: Human immunodeficiency virus 1, clade C isolate 2914, H9
testReadout: EC50 (nM)
Report the figure in nM without appending any unit label.

Below, 3 molecules whose answers are already recorded.
{"molecule": "C[C@H](Cn1cnc2c(N)ncnc21)OCP(=O)([O-])[S-].[Na+].[Na+] (some centres undefined)", "unitAnnotation": "nM", "EC50": 380}
{"molecule": "Nc1ncnc2c1ncn2CCOCP(=O)([O-])[S-].[Na+].[Na+] (centres undefined)", "unitAnnotation": "nM", "EC50": 490}
{"molecule": "Nc1ncnc2c1ncn2CCOCP(=O)(O)O", "unitAnnotation": "nM", "EC50": 1450}

Attention now turns to another entry.
Exam item: Consider the molecule C[C@H](Cn1cnc2c(N)ncnc21)OCP(=O)(O)O [TENOFOVIR ANHYDROUS] and give its measured EC50.
Marked response: 340

---

// values below are reported EC50
Tested on: Human immunodeficiency virus 1
Assay: Antiviral activity against 6250 TCID50 wild type HIV1 LAI infected in human H9 cells assessed as reduction in viral replication measured on day 7 post infection by reverse transcriptase activity
Format: functional, organism-based
Details: Human immunodeficiency virus 1, LAI, H9, 168 h
Report the figure in µM without appending any unit label.

{"compound": "C[C@H](Cn1cnc2c(N)ncnc21)OCP(=O)([O-])[S-].[Na+].[Na+] (some centres undefined)", "testReadout": "EC50", "result": 9.7}

Exam item: Consider the compound `Nc1ncnc2c1ncn2CCOCP(=O)(O)O` and give its measured EC50.
Marked response: 7.9

Exam item: Consider the compound C[C@H](Cn1cnc2c(N)ncnc21)OCP(=O)(O)O [TENOFOVIR ANHYDROUS] and give its measured EC50.
Marked response: 8.3

Exam item: Consider the compound Nc1ncnc2c1ncn2CCOCP(=O)([O-])[S-].[Na+].[Na+] (centres undefined) and give its measured EC50.
Marked response: 17

---

Test: Cytotoxicity against […]-activated human H9 cells on day 7 by MTT assay
Assay type: cell-based
// values below are reported CC50 at 7 day

Below, 2 compounds whose answers are already recorded.
{"compound": "C[C@H](Cn1cnc2c(N)ncnc21)OCP(=O)([O-])[S-].[Na+].[Na+] (stereo partly drawn)", "CC50 at 7 day": "> 100 µM"}
{"compound": "C[C@H](Cn1cnc2c(N)ncnc21)OCP(=O)(O)O [TENOFOVIR ANHYDROUS]", "CC50 at 7 day": "> 100 µM"}

Attention now turns to another entry.
Exam item: Consider the compound Nc1ncnc2c1ncn2CCOCP(=O)([O-])[S-].[Na+].[Na+] (stereo not drawn) and give its measured CC50 at 7 day.
Marked response: > 30 µM

---

Tested on: Human immunodeficiency virus 1
Experiment: Antiviral activity against HIV1 clade F isolate 2338 infected in human H9 cells assessed as inhibition of viral replication
Type: functional, organism-based
Details: Human immunodeficiency virus 1, clade F isolate 2338, H9
testReadout: EC50
In your response, the unit should come after the numeric value.

Below, 2 molecules whose answers are already recorded.
{"molecule": "Nc1ncnc2c1ncn2CCOCP(=O)(O)O [ADEFOVIR]", "EC50": "190 nM"}
{"molecule": "C[C@H](Cn1cnc2c(N)ncnc21)OCP(=O)([O-])[S-].[Na+].[Na+] (some centres undefined)", "EC50": "200 nM"}

Exam item: Request: EC50, test system Human immunodeficiency virus 1, entry C[C@H](Cn1cnc2c(N)ncnc21)OCP(=O)(O)O [TENOFOVIR ANHYDROUS]
Marked response: 40 nM

Exam item: Request: EC50, test system Human immunodeficiency virus 1, entry Nc1ncnc2c1ncn2CCOCP(=O)([O-])[S-].[Na+].[Na+] (centres undefined)
Marked response: 220 nM

---

Assay: Cytotoxicity against human CEM cells
Assay type: cell-based, CCRF-CEM
Conditions: CCRF-CEM (CEM) cells
testReadout: CC50

{"compound": "C[C@H](Cn1cnc2c(N)ncnc21)OCP(=O)([O-])[S-].[Na+].[Na+] (some centres not stated)", "CC50": "> 250 µM"}

Attention now turns to another entry.
Exam item: Consider the compound C[C@H](Cn1cnc2c(N)ncnc21)OCP(=O)(O)O [TENOFOVIR ANHYDROUS] and give its measured CC50.
Marked response: > 250 µM
